What TGI was measured for each of the following?
System: UACC-62 melanoma
protocol.details: NCI tumour cell line growth inhibition, 48 h

Query: Tell me reported TGI for O=C(O)CCC(NC(=O)c1ccccc1)C(=O)O (centres undefined) , tested with UACC-62 melanoma.
Result: > 100 µM

Query: What is its TGI for UACC-62 melanoma? Entry: N#Cc1cc(-c2nc3c(F)cccc3s2)ccc1N
Result: > 100 µM

Query: Any idea what TGI came out for CC(=O)OCC(=O)[C@@]12OC(C)(C)O[C@@H]1C[C@H]1[C@@H]3CC=C4C[C@@H](O)CC[C@]4(C)[C@H]3CC[C@@]12C on UACC-62 melanoma?
Result: > 100 µM

Query: Lab request: please report TGI under test system UACC-62 melanoma for CC(C)(CN1CCCCC1)C(=O)/C=C/c1ccc(Cl)cc1
Result: 20.2 µM

Query: Identify the measured TGI of O=S(Nc1ccccc1)c1ccc(Cl)c(Cl)c1 (centres undefined) for UACC-62 melanoma.
Result: 64.6 µM

Query: Query for UACC-62 melanoma: what TGI does the record show for COC(=O)[C@]12CC=C3O[C@@H]4OC5(CCCCC5)O[C@@H]4C3[C@@H]1C(=O)CCC2=O (some centres undefined) ?
Result: > 100 µM

Query: Query TGI on UACC-62 melanoma for COc1cc([C@H]2CC(=O)C[C@H](c3cc(OC)c(OC)c(OC)c3)C23C(=O)c2ccccc2C3=O)cc(OC)c1OC
Result: > 100 µM

Query: Hello, I am looking for reported TGI with UACC-62 melanoma for COCn1cnc2c(=O)n(-c3ccc(OC)cc3)c(=S)n(-c3ccc(OC)cc3)c21 . Could you help?
Result: > 100 µM

Query: Missing value: TGI, UACC-62 melanoma, entry C=C1C(=O)O[C@H]2[C@H]1CCC(/C=N/c1ncc(Br)cc1N)=C\CC[C@@]1(C)O[C@@H]21 . Fill in?
Result: 4.22 µM

Query: # value lookup — system UACC-62 melanoma, readout TGI, item O=C1CCCC(=O)N1CCc1c[nH]c2ccccc12
Result: > 100 µM

Query: Which measured TGI belongs to FC(F)(F)c1ccc(C#Cc2ccccc2C#Cc2ccccc2)cc1 , tested on UACC-62 melanoma?
Result: > 100 µM

Query: Any idea what TGI came out for O=C(Nc1ccc2[nH]c(=S)sc2c1)Nc1ccccc1F on UACC-62 melanoma?
Result: > 100 µM

Query: Form: Entry = O=C(O)NCC1CCCCC1 (tested in a mixture with another compound) | System = UACC-62 melanoma | TGI = ____
Result: 34.2 µM

Query: I'm curious: which TGI was measured for CC(=O)N1C(NN(C)C)CCN1c1ccccc1 (centres undefined) tested on UACC-62 melanoma?
Result: > 10 µM

====

System: OVCAR-8 ovarian
protocol.details: NCI tumour cell line growth inhibition, 48 h; in the data active means GI50 below about 0.43 µM; inactive means the rest
Outcome (select one): label 1 = active, label 0 = inactive

Query: Hello, I am checking results. What call was entered for CCC[CH2][Sn]([CH2]CCC)([CH2]CCC)[O]C(=O)c1ccc(Cl)cc1Cl ?
Result: label 1

Query: For CC(NCCC(=O)N(CCC(=O)N(CCC(=O)N(CCC(=O)N(CCC(=O)N(CCC(=O)N(CCC(=O)N(CCC(=O)N(CCC(=O)N(CCC(=O)O)[C@H](C)c1ccccc1)[C@H](C)c1ccccc1)[C@H](C)c1ccccc1)[C@H](C)c1ccccc1)[C@H](C)c1ccccc1)[C@H](C)c1ccccc1)[C@H](C)c1ccccc1)[C@H](C)c1ccccc1)[C@H](C)c1ccccc1)c1ccccc1 (some centres undefined) , what call appears in the results of this test?
Result: label 0

Query: Call for entry S=c1ssc(Oc2ccccc2)c1Cl :
Result: label 0

Query: Write down the call the test reported for this compound. Item: OC(CNCC1CCCO1)Cn1c2ccc(Cl)cc2c2cc(Cl)ccc21 (centres undefined)
Result: label 0

Query: Recorded call for CNCCNc1c2c(c(NCCNC)c3[nH]ccc13)C(=O)c1ccccc1C2=O ?
Result: label 1

Query: Write down the call the test reported for this compound. Item: CCN1C(=O)N(c2ccccc2)C2NC(=S)N(/N=C/C=C/c3ccccc3)C21 (centres undefined)
Result: label 0

Query: Assay outcome for COc1cc(/C=C/C(=O)c2c(C)nc3ccccc3c2/C=C/c2ccc(C)cc2)cc(OC)c1OC : what was it?
Result: label 0

Query: Could you check what this test reported for O=S(=O)(c1cccc2c(Cl)cccc12)N1CCCNCC1 ?
Result: label 0

Query: State the result this test recorded for COc1ccc(/C(=N\O)c2cc(C)c(OC)c(C)c2)cc1O .
Result: label 1

====

Tested on: NCI-H226 lung
protocol.details: NCI tumour cell line growth inhibition, 48 h
measurement.type: TGI

Query: Which TGI is reported for this molecule? COc1ccc(/C=C(\C#N)n2nnc3ccccc32)cc1
Result: 21.2 µM

Query: Any idea what its TGI is? The molecule is COc1cc(C(O)C(=O)c2nc3ccc([N+](=O)[O-])cc3[nH]c2=O)ccc1O (centres undefined)
Result: > 100 µM

Query: Given COc1ccc(C(=O)/C=C/c2ccc3c(c2)OCO3)c(OCc2ccccc2)c1 , state its recorded TGI.
Result: > 100 µM

Query: Consider the molecule NC(=O)C1Cc2cc3c(cc21)OCO3 (centres undefined) and give its measured TGI.
Result: > 100 µM

Query: Name the recorded TGI for CC(NCCC(=O)N(CCC(=O)N(CCC(=O)N(CCC(=O)N(CCC(=O)N(CCC(=O)N(CCC(=O)N(CCC(=O)N(CCC(=O)N(CCC(=O)O)[C@H](C)c1ccccc1)[C@H](C)c1ccccc1)[C@H](C)c1ccccc1)[C@H](C)c1ccccc1)[C@H](C)c1ccccc1)[C@H](C)c1ccccc1)[C@H](C)c1ccccc1)[C@H](C)c1ccccc1)[C@H](C)c1ccccc1)c1ccccc1 (some centres undefined) .
Result: 20.2 µM

Query: Field request: TGI | item: COc1ccc(/C(=N\O)c2cc(C)c(OC)c(C)c2)cc1O
Result: > 100 µM

Query: Fill blank: measured TGI of the molecule O=C(O)CNS(=O)(=O)c1ccc(NC(=O)CI)cc1 is ____.
Result: > 100 µM

Query: Find the recorded TGI belonging to Nc1c(C(=O)Nc2ccc(C3=NCCN3)cc2)cccc1C(=O)Nc1ccc(C2=NCCN2)cc1 and report it.
Result: > 100 µM

Query: Given the molecule Fc1ccccc1C1SCc2nc3ccccc3n21 (centres undefined) , what is its reported TGI?
Result: > 100 µM

Query: TGI lookup needed for O=c1oc2cc(N=Cc3ccc4c(c3)OCO4)ccc2c2ccccc12 , thanks.
Result: > 100 µM

Query: Quick one: TGI for COc1cc(-n2cc(-c3ccc(Cl)cc3)nc2SCc2cccc(C#N)c2)cc(OC)c1OC ?
Result: > 100 µM

Query: For the molecule O=C(c1ccccc1)[C@@H]1C[C@H](Sc2ccccc2)c2cc(Cl)ccc2N1 , what TGI is on record?
Result: 62.9 µM

Query: What TGI value was documented for this molecule, Nc1c([N+](=O)[O-])cc2c3c(cccc13)CC2 ?
Result: > 100 µM

Query: Any idea what its TGI is? The molecule is O=C(O)NCC1CCCCC1 (tested in a mixture with another compound)
Result: 41.2 µM

====

Kindly state TGI for each of the entries shown.
Test system: PC-3 prostate
protocol.details: NCI tumour cell line growth inhibition, 48 h

Query: I have this compound here, COC(=O)C1(C(=O)OC)Cc2ccc(C)cc2C2=C1C(=O)c1ccccc1C2=O , and I need its recorded TGI.
Result: 31.3 µM

Query: Looking for the measured TGI of CC1=C(C(=O)N(C(C)C)C(C)C)CC(C(=O)N(C(C)C)C(C)C)=C(C)N1 , can you help?
Result: > 100 µM

Query: Param item = CCC[CH2][Sn]([CH2]CCC)([CH2]CCC)[O]C(=O)c1ccc(Cl)cc1Cl ; retrieve measured TGI.
Result: 0.471 µM

Query: Bench note: what TGI did COc1cccc(N2C(=O)/C(=C\c3ccccc3)SC2c2cc(OC)c(OC)c(OC)c2)c1 (stereo not given) show?
Result: > 100 µM

Query: Which TGI reading was recorded for the compound O=C(c1ccccc1)N1OCCC1Nc1ccc(Br)cc1 (stereo not given) ?
Result: > 10 µM

Query: So what does the record say about TGI for C[C@]12C[C@@H](c3ccccc3)Nc3ccccc3N1C(c1ccccc1)=NO2 ?
Result: > 100 µM

Query: // TGI lookup, key: CCOC(=O)[C@@H]1CCN2CN(c3ccc(OC)cc3)N=C(c3ccccc3)[C@@]12c1ccccc1
Result: > 100 µM

Query: Using the record for Nc1[nH]c(=S)c2c(N)n[nH]c2c1C(=O)Nc1ccccc1 , report its TGI.
Result: > 100 µM

Query: Would you kindly share the measured TGI for Oc1ccc(Cc2nccc3cc(O)c(O)cc23)cc1O ?
Result: > 100 µM

Query: Please report the recorded TGI for COc1ccc(/C=C(\C#N)n2nnc3ccccc32)cc1 .
Result: > 60 µM

Hello, the source for this data is PubChem BioAssay (NCI), in case you need it.
